# TARGET OF ASSAY: T1, human SIRPαV2 extracellular domain + His-tag (CAA71403.1) (human, UniProt P78324 31-373)
# T1 construct: also called hSIRPαV2; HuSIRPαV2
# T1 sequence (P78324 other isoform, or with tags, fused parts or gaps): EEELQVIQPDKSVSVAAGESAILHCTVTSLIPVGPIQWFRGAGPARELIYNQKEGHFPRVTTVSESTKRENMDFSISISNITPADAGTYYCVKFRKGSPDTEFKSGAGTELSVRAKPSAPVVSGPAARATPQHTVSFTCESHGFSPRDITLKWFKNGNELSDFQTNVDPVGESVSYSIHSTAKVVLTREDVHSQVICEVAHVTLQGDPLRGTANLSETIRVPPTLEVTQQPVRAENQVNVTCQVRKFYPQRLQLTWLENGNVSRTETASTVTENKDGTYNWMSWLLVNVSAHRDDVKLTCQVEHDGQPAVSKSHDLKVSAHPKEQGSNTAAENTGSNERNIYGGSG
# ASSAY PROCEDURE: SPR, Ab captured, ECD-His analyte
Quick rule for you: Kd under 1 nM gets Yes, anything else gets No.

Reference set, count: 4
| BINDER | ASSIGNED LABEL |
| --- | --- |
| Antibody E11 (antibody, human IgG1, kappa, L234A L235A, V domains shown) VH: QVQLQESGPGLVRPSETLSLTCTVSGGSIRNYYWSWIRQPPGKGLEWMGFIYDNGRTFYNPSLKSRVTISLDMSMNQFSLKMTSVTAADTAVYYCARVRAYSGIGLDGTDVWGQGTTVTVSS VL: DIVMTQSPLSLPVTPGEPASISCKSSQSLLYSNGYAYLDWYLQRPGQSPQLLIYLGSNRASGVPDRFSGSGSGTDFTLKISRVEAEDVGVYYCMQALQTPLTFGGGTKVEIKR | Yes |
| Antibody E16 (antibody, human IgG1, kappa, L234A L235A, V domains shown) VH: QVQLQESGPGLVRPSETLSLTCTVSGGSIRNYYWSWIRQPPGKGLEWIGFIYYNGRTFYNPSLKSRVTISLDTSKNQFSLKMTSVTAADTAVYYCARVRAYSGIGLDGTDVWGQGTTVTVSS VL: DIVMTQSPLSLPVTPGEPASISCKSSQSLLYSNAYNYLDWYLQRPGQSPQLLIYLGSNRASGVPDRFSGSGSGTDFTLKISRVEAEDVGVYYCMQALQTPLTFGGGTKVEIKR | No |
| Antibody E15 (antibody, human IgG1, kappa, L234A L235A, V domains shown) VH: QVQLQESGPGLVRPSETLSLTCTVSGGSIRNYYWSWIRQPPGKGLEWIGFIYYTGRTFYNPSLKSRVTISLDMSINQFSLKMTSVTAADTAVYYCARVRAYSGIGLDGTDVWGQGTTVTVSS VL: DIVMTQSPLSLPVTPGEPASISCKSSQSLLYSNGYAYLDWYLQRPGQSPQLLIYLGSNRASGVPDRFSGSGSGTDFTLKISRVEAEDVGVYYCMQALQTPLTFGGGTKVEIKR | Yes |
| Antibody E21 (antibody, human IgG1, kappa, L234A L235A, V domains shown) VH: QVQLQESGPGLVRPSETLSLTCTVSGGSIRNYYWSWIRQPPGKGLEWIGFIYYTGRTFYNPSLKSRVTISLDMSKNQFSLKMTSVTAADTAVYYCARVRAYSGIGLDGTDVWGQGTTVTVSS VL: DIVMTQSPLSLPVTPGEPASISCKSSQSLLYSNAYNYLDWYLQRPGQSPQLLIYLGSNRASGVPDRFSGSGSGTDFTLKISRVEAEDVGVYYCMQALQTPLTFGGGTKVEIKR | No |

# TODO verify Kd < 1 nM strictly for this binder: Antibody E20 (antibody, human IgG1, kappa, L234A L235A, V domains shown) VH: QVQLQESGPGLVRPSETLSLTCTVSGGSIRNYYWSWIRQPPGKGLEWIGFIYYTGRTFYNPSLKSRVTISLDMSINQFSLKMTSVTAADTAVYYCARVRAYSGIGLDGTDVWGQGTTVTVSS VL: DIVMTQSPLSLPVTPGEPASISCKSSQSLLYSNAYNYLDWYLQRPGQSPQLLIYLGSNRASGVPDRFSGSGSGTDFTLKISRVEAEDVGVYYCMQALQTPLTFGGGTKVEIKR
No
